TGI overview
Test system: OVCAR-8 ovarian
assay_text: NCI tumour cell line growth inhibition, 48 h

# smiles_code, TGI (µM)
records = [
    ("Nc1nnc(-c2c[nH]c3ncc(Br)cc23)c(-c2c[nH]c3ccc(Br)cc23)n1", 30.4),
    ("COc1cccc(-c2ccc(/C=N/NC(=O)c3[nH]c4ccc(Br)cc4c3-c3ccccc3)o2)c1", 5.57),
    ("O=C(CNc1nc(-c2ccccc2)cs1)Nc1ccc([N+](=O)[O-])cc1Cl", 18.3),
    ("CN1CCc2c(sc3ncnc(N/N=C/c4ccc(Cl)cc4Cl)c23)C1", 7.62),
]

====

Test system: MDA-MB-468 breast
assay_text: NCI tumour cell line growth inhibition, 48 h
endpoint_label: log10(TGI) (log10 of the value in µM)

# smiles_code, log10(TGI)
data = [
    ("Nc1nnc(-c2c[nH]c3ncc(Br)cc23)c(-c2c[nH]c3ccc(Br)cc23)n1", 0.95),
    ("O=C(/C=C/c1cccc(OCc2ccc(F)cc2)c1)c1nc2ccccc2[nH]1", 1.51),
    ("c1ccc(-c2nc(N3CCNCC3)c3nc(-c4ccccc4)oc3n2)cc1", 0.56),
    ("CC(C)(C)CC(C)(C)c1ccc(OCCOCCSC(=N)N)cc1", 0.52),
    ("C[C@@H]1CC[C@@]2(OC1)O[C@H]1C[C@H]3[C@@H]4CC=C5C[C@@H](O[C@@H]6O[C@H](CO)[C@@H](O[C@@H]7O[C@@H](CO)[C@H](O)[C@H]7O)[C@H](O)[C@H]6O[C@@H]6O[C@@H](C)[C@H](O)[C@@H](O)[C@H]6O)CC[C@]5(C)[C@H]4CC[C@]3(C)[C@H]1[C@@H]2C", 0.16),
    ("O=C(/C=C\\c1ccnc2ccccc12)c1ccc([N+](=O)[O-])cc1", 0.96),
]

====

TGI overview
Test system: MALME-3M melanoma
assay_text: NCI tumour cell line growth inhibition, 48 h

# smiles_code, TGI (µM)
rows = [
    ("COc1cccc(-c2ccc(/C=N/NC(=O)c3[nH]c4ccc(Br)cc4c3-c3ccccc3)o2)c1", 32.6),
    ("Nc1nnc(-c2c[nH]c3ncc(Br)cc23)c(-c2c[nH]c3ccc(Br)cc23)n1", 25.8),
    ("CN1CCc2c(sc3ncnc(N/N=C/c4ccc(Cl)cc4Cl)c23)C1", 3.94),
    ("O=C(CNc1nc(-c2ccccc2)cs1)Nc1ccc([N+](=O)[O-])cc1Cl", 21),
]

====

System: MDA-MB-468 breast
assay_text: NCI tumour cell line growth inhibition, 48 h; in the data active = GI50 below about 0.43 µM; inactive = the rest
Outcomes: Y (active), N (inactive)

# compound, system_under_test, label_class
measured = [
    ("CC(=O)N1CC(F)(F)c2c(Sc3ncc(N4CCC5(CC4)COC[C@H]5N)nc3N)cccc21", "MDA-MB-468 breast", "N"),
    ("C#Cc1ccc(NC(=O)c2ccc(/C=C/C(=O)c3nccn3C)cc2)cc1", "MDA-MB-468 breast", "Y"),
    ("CC[C@H](C)[C@H](NC(=O)C12C3C4C1C1C2C3C41NC(C)=O)C(=O)N(C)[C@H](C[C@@H](OC(C)=O)c1nc(C(=O)N[C@@H](Cc2ccccc2)C[C@H](C)C(=O)OC)cs1)C(C)C (stereo partly specified)", "MDA-MB-468 breast", "Y"),
    ("CCNCCNc1cc(-c2ccc(F)cc2)c(C#N)c2nc3ccccc3n12", "MDA-MB-468 breast", "N"),
    ("COc1ccc(/C=C2\\N=C3SC=C(N)N3C2=O)cc1", "MDA-MB-468 breast", "Y"),
    ("COc1ccc(-c2ccc(-c3ccc(C(=N)N)cn3)s2)cc1Cl", "MDA-MB-468 breast", "N"),
    ("O=C(CNc1nc(-c2ccccc2)cs1)Nc1ccc([N+](=O)[O-])cc1Cl", "MDA-MB-468 breast", "N"),
    ("CC(C)(C)CC(C)(C)c1ccc(OCCOCCSC(=N)N)cc1", "MDA-MB-468 breast", "N"),
    ("Nc1nnc(-c2c[nH]c3ncc(Br)cc23)c(-c2c[nH]c3ccc(Br)cc23)n1", "MDA-MB-468 breast", "N"),
    ("O=Nc1c(O)ccc2ccccc12", "MDA-MB-468 breast", "N"),
    ("O=C(/C=C/c1cccc(OCc2ccc(F)cc2)c1)c1nc2ccccc2[nH]1", "MDA-MB-468 breast", "N"),
]

Values from PubChem BioAssay (NCI)
